Overview of recorded AmyQ secretion efficiency for various sequences
Test system: Bacillus subtilis DB104 (SP-AmyQ fusion secretion)
Experiment: AmyQ secretion efficiency, weighted average sort bin (1 = best secretion, 10 = worst) (bin number (weighted average, 1-10)); higher = lower secretion efficiency

- Record sequence: "MKRLLSTLLIGIMLLITTILVSTLTFAPSAFAKQD"
  AmyQ secretion efficiency: 1.3
- Record sequence: "MKKLLAAGIIGLSIASPSFAAEK"
  AmyQ secretion efficiency: 4.78
- Record sequence: "MKKSSYCSYQRQVILSGVALTQLS"
  AmyQ secretion efficiency: 7.04
- Record sequence: "MGLGTTFLSVAVAASFMSLSISLPGVQAAEG"
  AmyQ secretion efficiency: 2.45
- Record sequence: "MIAYFGKCLLLVTIMFLGVLFGMQQMNHG"
  AmyQ secretion efficiency: 5.05
- Record sequence: "MKKKQVLALTAAAGLGLTALHSAPAAKAAPL"
  AmyQ secretion efficiency: 2.4
- Record sequence: "MKVLLSALLLLLFAFEPSASKKKL"
  AmyQ secretion efficiency: 6.2

----------
System: Bacillus subtilis DB104 (SP-AmyQ fusion secretion)
Test: AmyQ secretion efficiency, weighted average sort bin (1 = best secretion, 10 = worst) (bin number (weighted average, 1-10)); higher = lower secretion efficiency
Each entry falls into one class according to its AmyQ secretion efficiency; the ranges are low-valued = under 3, mid-valued = from 3 up to 6, high-valued = 6 and over

- Record sequence: "MKVLLSALLLLLFAFEPSRSGKKL"
  Category: "high-valued"
- Record sequence: "MTKKAWFLPLVCVLLIRKKLAPAASASAQTT"
  Category: "high-valued"
- Record sequence: "MKKKLAAGLTASAIVGTTLVVTPPTAPGGAEAATI"
  Category: "high-valued"
- Record sequence: "MKLSVKIAGVLTVAAAAMTAKMYYTAKGN"
  Category: "high-valued"
- Record sequence: "MRSYIKVLTMCFLGLILFVPTALAAND"
  Category: "low-valued"
- Record sequence: "MKIRKIKKKKRKSFGMLISAVPALAAGT"
  Category: "high-valued"
- Record sequence: "MKLKKRVSMFLVALTMCGGLFVTPAKYVKT"
  Category: "mid-valued"
- Record sequence: "MFKKHTISLLIIFLLASAVLAKPAEAHTV"
  Category: "low-valued"
- Record sequence: "MKKWMATGSLAAAVLLCLMVPQQIQGASS"
  Category: "low-valued"
- Record sequence: "MKRFILVLSFLSIIVAYPIQINASPM"
  Category: "low-valued"
- Record sequence: "MKLSVKIAGVLTVAAAAMTAKMYVTAKGN"
  Category: "high-valued"
- Record sequence: "MKRKRFLIGAGVAAVILSGWFIADHQTHSQEM"
  Category: "mid-valued"
- Record sequence: "MKRLLSTLLIGIMLLVTFAPSAFAKQD"
  Category: "low-valued"
- Record sequence: "MKKKQVMLALTAAAGLGLTALHKRPAAKAAPL"
  Category: "high-valued"
- Record sequence: "MKRIRIPMTLALGAALTIAPLSFVSAEEN"
  Category: "low-valued"
- Record sequence: "MPYLKRVLLLLVTGLFMSLFAVTATASEQTG"
  Category: "low-valued"
- Record sequence: "MKKIMIFLTSFMLLAMTGQTALAKDV"
  Category: "mid-valued"
- Record sequence: "MKKRLIGFLVLVPALIKSGITLIEANKK"
  Category: "high-valued"
- Record sequence: "MKSKWMSGLLLVAVGFSFTQVMVHAGTT"
  Category: "mid-valued"
- Record sequence: "MKTKTLFIFSAILTLSIFAPNTTFAQTA"
  Category: "low-valued"
- Record sequence: "MILANSVSALTPSTTLAITAKAKEL"
  Category: "high-valued"
- Record sequence: "MKRTWNVCLTALLSVLLVAGSVDDHAEAKKP"
  Category: "low-valued"
- Record sequence: "MGLGKKLSVAVAASFMSLSISLDDEVQAAEG"
  Category: "low-valued"
- Record sequence: "MKKLVLCVSILAVILSGVLLTQLS"
  Category: "mid-valued"
- Record sequence: "MKKKQVSHAIIISVMLSFVIAVFHTIHASERKR"
  Category: "high-valued"
- Record sequence: "MKLWMRKTLVVLFTIVTFGLVSPPAALMVDKP"
  Category: "low-valued"
- Record sequence: "MRNLTKTSLLLAGLCTAAQMVFVTHLSAEES"
  Category: "mid-valued"
- Record sequence: "MKKAAAVLLSLGLVFGFSYGAGHVAELKTK"
  Category: "high-valued"
- Record sequence: "MNKPTKGFSTLALAAGSTAAAAGGAGTIHAQQP"
  Category: "high-valued"
- Record sequence: "MKKGIIRFLLVSFVLFFALSTGITGVQLAPA"
  Category: "mid-valued"
- Record sequence: "MNLRKIRRKKKKSLGMLVSAAPVLATSS"
  Category: "high-valued"
- Record sequence: "MKLKSKLLLSCLALSTVFVATTIANSPTH"
  Category: "mid-valued"
- Record sequence: "MRNLTKTSLLLAGLCTAAQMVFVTHSTASAEES"
  Category: "mid-valued"
- Record sequence: "MKSKWMSGLLLVAVGFSFTSVMVHAGET"
  Category: "high-valued"
- Record sequence: "MKLWMRKTLVVLFTIVTFGLVVPPAALMADKP"
  Category: "low-valued"
- Record sequence: "MKQTRSKQSSFMLLAMTGQTALAKDV"
  Category: "high-valued"
- Record sequence: "MLKRTSLFISSAVLLSILLPSGQAHAQSA"
  Category: "low-valued"
- Record sequence: "MKLSVKIAGVLTVAAAAMTAKMYATQKGN"
  Category: "high-valued"
- Record sequence: "MKLAKRVSALTPSTTLAITAKIKEL"
  Category: "high-valued"
- Record sequence: "MFNRLFRVCFLAALIMAFTLPNSVYAQPK"
  Category: "low-valued"
- Record sequence: "MGLGKKLSVAVAASFMSLSISLPGVQGAEG"
  Category: "low-valued"
- Record sequence: "MKKRRGRGSVLVPALIMSGITLIEANKK"
  Category: "high-valued"
- Record sequence: "MNKKYFVLIVCIIFTSALFPTFSSCTAAQG"
  Category: "low-valued"
- Record sequence: "MKSKGSIMACLILFSFTITTFINTETISTFSN"
  Category: "high-valued"
- Record sequence: "MITTIVITCVMAASLTLGSLLPAGYASAKED"
  Category: "mid-valued"
- Record sequence: "MKRSYVSLRVWMVFLMNWVTPDRKTAAAAVY"
  Category: "high-valued"
- Record sequence: "MFNRLFRVCFLAALIMAFTLPNSCYAQKP"
  Category: "low-valued"
- Record sequence: "MLKKKWMVGLLAGCLAAGGFSYNKFATEN"
  Category: "high-valued"
- Record sequence: "MRNLTKTSLLLAGLCTAAQSEFVTHASAEES"
  Category: "mid-valued"
- Record sequence: "MLKKIALTLCPAIVGSLLFFTGPASAHVS"
  Category: "low-valued"
- Record sequence: "MKLWMRKTLVVLFTIVTFGLVSPPAALMSDKP"
  Category: "mid-valued"
- Record sequence: "MKRMIVRMTLPLLIVCLAFSDFSASARAASE"
  Category: "low-valued"
- Record sequence: "MKKRLIAPMLLSAASLAFFAMSGSGAQAAAY"
  Category: "mid-valued"

----------
Tested on: Bacillus subtilis DB104 (SP-AmyQ fusion secretion)
Assay: AmyQ secretion efficiency, weighted average sort bin (1 = best secretion, 10 = worst) (bin number (weighted average, 1-10)); higher = lower secretion efficiency
Overview of recorded AmyQ secretion efficiency for various sequences
Recorded metric: AmyQ secretion efficiency

- Record sequence: "MFKKHTISLLIIFLLASAVLAKPGEAHTV"
  Recorded metric: "AmyQ secretion efficiency"
  Endpoint result: 2.82
- Record sequence: "MKKKLAAGLTASAIVGTTLVVTPAEADDD"
  Recorded metric: "AmyQ secretion efficiency"
  Endpoint result: 5.01
- Record sequence: "MKKAFLVFLSVVLVTTVFLVVSFESVAQAKQL"
  Recorded metric: "AmyQ secretion efficiency"
  Endpoint result: 2.33
- Record sequence: "MKRLFMKASLVLFAVVFVFAVKGAKRAKAETH"
  Recorded metric: "AmyQ secretion efficiency"
  Endpoint result: 2.04
- Record sequence: "MKKQIITATTAVVLGSTLFAGAASSQSI"
  Recorded metric: "AmyQ secretion efficiency"
  Endpoint result: 1.97
- Record sequence: "MKKKQVMLALTAAAGLGLTALKHKKKKAKAAPL"
  Recorded metric: "AmyQ secretion efficiency"
  Endpoint result: 6.6
- Record sequence: "MLCVMMLLFSAIASFPVSAQAAPQ"
  Recorded metric: "AmyQ secretion efficiency"
  Endpoint result: 4.18
- Record sequence: "MKVLLSALLLLLFAFSPSASGKKL"
  Recorded metric: "AmyQ secretion efficiency"
  Endpoint result: 4.69
- Record sequence: "MKKIWIGMLAAAVLLLRKRKKKSLADAA"
  Recorded metric: "AmyQ secretion efficiency"
  Endpoint result: 6.58
- Record sequence: "MKTLRSRCYKGILSGVIFFGLKIDAKDI"
  Recorded metric: "AmyQ secretion efficiency"
  Endpoint result: 6.82
- Record sequence: "MKLWMRKTLVVLFTIVTFGLVSPPAAGMADKP"
  Recorded metric: "AmyQ secretion efficiency"
  Endpoint result: 3.4
- Record sequence: "MKKTIMSFVAVAALSTTAFGAHLSAKEI"
  Recorded metric: "AmyQ secretion efficiency"
  Endpoint result: 2.5
- Record sequence: "MKKWMAGLFLAAAVLLCLMVPQQGQGASS"
  Recorded metric: "AmyQ secretion efficiency"
  Endpoint result: 6.52
